Tested on: NCI-H460
ASSAY DETAILS: Growth inhibition of human NCI-H460 cells incubated for 48 hrs by sulforhodamine B assay
Type: functional
CONDITION NOTES: NCI-H460, 48 h
VALUE TYPE: log10 GI50 (log10 of the value in nM)
Values below are the log10 of the recorded GI50, with nM as the unit.

Here are 6 compounds together with their reported answers.
COMPOUND	TARGET OR TEST SYSTEM	log10 GI50
C=C1C(=O)O[C@@H]2[C@H]3O[C@]3(C)CC/C=C(/COC(=O)c3cn(C)c4ccccc34)CC[C@@H]12	NCI-H460	3.24
C=C1C(=O)O[C@@H]2[C@H]3O[C@]3(C)CC/C=C(/COC(=O)c3cc4cc(Cl)ccc4[nH]3)CC[C@@H]12	NCI-H460	3.24
C=C1C(=O)O[C@@H]2[C@H]3O[C@]3(C)CC/C=C(/COC(=O)c3cc4ccccc4s3)CC[C@@H]12	NCI-H460	3.34
C=C1C(=O)O[C@@H]2[C@H]3O[C@]3(C)CC/C=C(/COC(=O)c3cc4cc(OC)ccc4[nH]3)CC[C@@H]12	NCI-H460	3.26
C=C1C(=O)O[C@@H]2[C@H]3O[C@]3(C)CC/C=C(/COC(=O)/C=C/c3c[nH]c4ccccc34)CC[C@@H]12	NCI-H460	3.00
C=C1C(=O)O[C@@H]2[C@H]3O[C@]3(C)CC/C=C(/COC(=O)CCCc3c[nH]c4ccccc34)CC[C@@H]12	NCI-H460	3.66

The recorded log10 GI50 with NCI-H460 for C=C1C(=O)O[C@@H]2[C@H]3O[C@]3(C)CC/C=C(/COC(=O)c3cc4ccccc4o3)CC[C@@H]12 was 3.30

log10 GI50 value, target or system NCI-H460, for C=C1C(=O)O[C@@H]2C3O[C@]3(C)CC/C=C(\C)CC[C@@H]12 (some centres not stated) : 4.27

Entry C=C1C(=O)O[C@@H]2[C@H]3O[C@]3(C)CC/C=C(/COC(=O)c3c[nH]c4ccccc34)CC[C@@H]12 , tested on NCI-H460, has a reported log10 GI50 of 3.04

Origin of the recorded values: ChEMBL document CHEMBL4138104
